Assay: A549 lung cancer cell viability effects, profiling panel, resazurin fluorescence, 24 h, PK04 Diversity Set (AID 1171); also: test concentration not given here
Conditions: higher = more signal, called active from +8 up or from −8 down
Class key for z-score values: I = under 0.04, II = from 0.04 up to 0.8, III = 0.8 and over

Field: example entries. Status: answers known.
Compound	Label
COc1cc2c(cc1OC)CN(C(=O)[C@H]1[C@@H]3C(=O)O[C@@H](c4ccccc4)[C@@H](c4ccccc4)N3[C@@H](c3ccccc3OCCO)[C@]13C(=O)Nc1ccc(C#CC4(O)CCCCCC4)cc13)CC2	I
CC(C)(C)OC(=O)CC[C@@]1(C(=O)NCc2ccccc2)N=C(c2ccc(OCCCO)cc2)O[C@@H]1c1ccccc1	I
CC/C=C/C(=O)N(C[C@@H]1CCCO1)[C@@H]1CC(C(=O)NCCO)=C[C@H](Oc2c(I)cc(CO)cc2OC)[C@H]1O	III
CC(=O)Nc1ccc([C@H]2[C@H](C)CC[C@H]3C(=O)N4[C@@H](CC[C@@H](C)[C@@H]4c4ccc(NC(C)=O)cc4)C(=O)N32)cc1	II
O=C1c2ccccc2[C@](Cc2ccccc2I)(C(=O)NCc2ccccc2)[C@H](c2ccc(CO)cc2)N1Cc1ccccc1C(F)(F)F	II

Which of the defined bands does the recorded z-score of Cc1ccc(S[C@]2(C(=O)O)CC(=O)N(Cc3cc(C(F)(F)F)cc(C(F)(F)F)c3)[C@@H]2c2ccc(CO)cc2I)cc1 sit within? II

Which of the defined bands does the recorded z-score of CCCC/C=C/[C@H]([C@@H](O)Cc1ccccc1)N(CC#Cc1ccccc1)Cc1ccccc1Br sit within? III

Which of the defined bands does the recorded z-score of COCCCNC(=O)[C@@]1(Sc2ccc(C)cc2)CC(=O)N(Cc2cc(C(F)(F)F)cc(C(F)(F)F)c2)[C@@H]1c1ccc(CO)cc1I sit within? II

Which of the defined bands does the recorded z-score of Cc1ccc(S(=O)(=O)N[C@H]2COC(=O)CC=C[C@H](C)COC(=O)N[C@@H](C)C(=O)CC=C[C@@H]2C)cc1 sit within? II

###

Assay: small-molecule microarray binders of probe aNog, primary screen, biochemical, biotinylated probe, 635/667 nm fluorescence (AID 1115);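 also: probe is biotinylated aNog protein used at 0.15 µg/mL for 1 h at 4 C; z-score combines 667 nm fluorescence of each spot with its signal to noise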
Details: higher = more signal
Property Label: composite z-score
Please give the numeric answer without any surrounding text.

Observe how each entry below is paired with its result.
Compound	composite z-score
CN1C(=O)C2C=CC(C(O)c3ccc(N(C)C)cc3)N(Nc3ccc([N+](=O)[O-])cc3[N+](=O)[O-])C2C1=O (configuration not stated)	1.7
C=CCN1C(=O)[C@@]2(O[C@@H](CCn3cc([C@H](O)c4ccccc4)nn3)[C@H]([Si](C)(C)c3ccc(OC)cc3)[C@H]2C)c2cc(N3CCOC3=O)ccc21	-0.0428
CO[C@@H]1COC(=O)CC=C[C@H](C)COC(=O)[C@H](Cc2ccccc2)NC(=O)CC=C[C@H]1C	-0.547

Dear colleague, I am looking for the recorded composite z-score of the following compound: O=C1OCCC/C=C\[C@H]2OC34C=CCN(CCN5CCOCC5)C(=O)[C@H]3N(CCCCCO)C(=O)[C@@H]4C12 (some centres not stated) -0.356

Dear colleague, I am looking for the recorded composite z-score of the following compound: C=CCN1C(=O)[C@@]2(Cc3ccccc3)N=C(c3ccc(OCCCO)cc3)O[C@H]2c2ccccc21 0.79

Dear colleague, I am looking for the recorded composite z-score of the following compound: O=C/C=C/c1ccc(/C=C/c2ccccc2)cc1 -0.489

Dear colleague, I am looking for the recorded composite z-score of the following compound: C=CCC(OC(C)=O)[C@@H]1[C@@H](N(Cc2cc3ccccc3o2)C(=O)Cc2ccc(F)cc2)c2cc(OCCCO)ccc2N1C(=O)c1ccc(-c2ccccc2)cc1 (some centres not stated) 0.389
